experiment: recombinant UMI read abundance after kanamycin selection (control-corrected) (log10(CPM+1)); higher = more efficient recombination; extreme values may be limits of the assay; sequences stand for … in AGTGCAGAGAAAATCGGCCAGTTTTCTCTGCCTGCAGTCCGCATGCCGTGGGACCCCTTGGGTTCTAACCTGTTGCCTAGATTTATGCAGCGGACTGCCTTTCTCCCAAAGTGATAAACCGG…AGGTTGGTTTCACT; site = the 11-nt donor;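 further: IS621 bridge recombinase in Escherichia coli cells against a fixed T5 target plasmid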
In this section we review reported recombinant UMI read abundance (log10) values for a set of sequences.
Please reply with the value in numeric form only.

# sequence-content, recombinant UMI read abundance (log10)
records = [
    ("ACATCGACATGGACCGGTTTTCCCGGTAATCCGTATTTGTG (site ACATCGACTCA)", 0.245),
]

Tell me recombinant UMI read abundance (log10) reported for TGCTTGCCATGGACCGGTTTTCCCGGTAATCCGTATTTGAA (site TGCTTGCCTTT)
0.0149

Tell me recombinant UMI read abundance (log10) reported for GGTCCAGCATGGACCGGTTTTCCCGGTAATCCGTATTTGAA (site GGTCCAGCTTT)
0.307
